System: MCF7 breast
experiment: NCI tumour cell line growth inhibition, 48 h
Provide the recorded log10(TGI) for the entries that follow.
For clarity, the numbers are log10 values of TGI expressed in µM.

Illustrative cases are given below, each with its answer.
compound	log10(TGI)
CCOC(=O)C(C(=S)Nc1ccccc1)c1nn2c(=O)cc(C)nc2s1 (stereo not drawn)	1.58
O=C(Nc1ccccc1)NS(=O)(=O)c1ccc(-n2nc3c(c2-c2ccc(Cl)cc2)Cc2ccccc2-3)cc1	1.45
COc1cc(O)c(C(=O)/C=C/c2ccc(O)cc2)c(O)c1[C@@H]1C[C@H](CCc2ccc(O)cc2)O[C@H](c2ccc(O)cc2)C1	0.95
O=C1/C(=C/c2ccccc2O)N=C(c2ccccc2)N1c1nc2ccccc2s1	1.84
COc1cc2c(cc1Nc1nc(Nc3ccsc3C(N)=O)c3cc[nH]c3n1)N(C(=O)CN(C)C)CCC2(C)C	0.47

Dear colleague, could you please provide log10(TGI) for the compounds listed below?
1. CN(C)c1ccccc1CN1CCCN(Cc2ccccc2N(C)C)C1c1ccncc1
2. CC[C@@H](C(=O)[C@@H](C)[C@@H](O)[C@H](C)[C@@H]1O[C@@H]([C@@H](CC)C(=O)N(CC)CC)CC[C@@H]1C)C1O[C@]2(C=CC(=O)[C@]3(CC[C@@](C)([C@H]4CC[C@](O)(CC)[C@H](C)O4)O3)O2)[C@H](C)C[C@@H]1C (stereo partly drawn)
3. Fc1ccc(Nc2nc3nonc3nc2Nc2ccc(F)cc2)cc1
4. Cc1ccc(O)c(-c2cc(-c3cccc(Cl)c3)c(C#N)c(N)n2)c1
5. CN(CC(=O)N(Cc1ccc(C2CCCCC2)cc1)c1ccc(C(=O)O)c(O)c1)S(=O)(=O)c1c(F)c(F)c(F)c(F)c1F
6. CCNC(=O)c1cc2c(-c3cc(C(C)(C)O)ccc3Oc3c(C)cc(F)cc3C)cn(C)c(=O)c2[nH]1
7. CCOC(=O)C1OC(C2(C)OC3(OC4(C=CC3O)OC(C(C)C(=O)C(C)C(O)C(C)CC(C)c3c(Cl)cc(C)c(O)c3C(=O)O)C(C)CC4C)C(C)C2OC)CC1O (stereo not drawn)

Resp:
1: 1.47; 2: 0.91; 3: 1.05; 4: 1.63; 5: 1.18; 6: 1.11; 7: 1.36

Provide log10(TGI) values for the following items, in order.
1. COc1cc2c3c(n(CCCI)c(=O)c2cc1OC)-c1cc2c(cc1C3=O)OCO2
2. Oc1[nH]c2ccc(Cl)cc2c1/C=c1/ccc2c(c1)N=C(c1ccc(F)cc1)N=2
3. COc1ccc(C(SCCO)(c2ccccc2)c2ccccc2)cc1
4. CCOC(=O)C(=Cc1ccc(Oc2ccccc2)cc1)C(=O)OCC

Resp:
1. 0.78
2. 0.45
3. 1.40
4. 1.27
